study-system: human recombinant ATX (Homo sapiens (Human))
assay-info: ATX inhibition, hydrolysis of FRET substrate FS-3
Assay type: biochemical
assay-setup: 1 μM FS-3, 4 nM human recombinant ATX, 1 hour time point; read-out: IC50 (nM ± SD) vs FS-3
property: IC50 (nM)

Known IC50 results, listed for orientation:
molecule	study-system	IC50 (nM)
O=C(Nc1cccc(F)c1)c1cc(S(=O)(=O)N2CCOCC2)c(Cl)cc1Cl [Compound 918013, reference compound]	human recombinant ATX (Homo sapiens (Human))	117
O=C(Nc1cc(Cl)c(F)c(Cl)c1)c1cc(S(=O)(=O)N2CCOCC2)c(Cl)cc1Cl	human recombinant ATX (Homo sapiens (Human))	40.1
O=S(=O)(c1cc(C(=S)Nc2cccc(F)c2)c(Cl)cc1Cl)N1CCOCC1	human recombinant ATX (Homo sapiens (Human))	121
N#Cc1c(F)cc(NC(=O)c2cc(S(=O)(=O)N3CCOCC3)c(Cl)cc2Cl)cc1F	human recombinant ATX (Homo sapiens (Human))	190
O=C(Nc1c(F)c(F)c(F)c(F)c1F)c1cc(S(=O)(=O)N2CCOCC2)c(Cl)cc1Cl	human recombinant ATX (Homo sapiens (Human))	1030

A = O=S(=O)(c1cc(C(=S)Nc2cc(F)c(F)c(F)c2)c(Cl)cc1Cl)N1CCOCC1
B = CN1CCN(S(=O)(=O)c2cc(C(=S)Nc3cc(Cl)c(F)c(Cl)c3)c(Cl)cc2Cl)CC1
C = COC(=O)c1c(F)cc(NC(=O)c2cc(S(=O)(=O)N3CCOCC3)c(Cl)cc2Cl)cc1F
Prompt: Sort entries by IC50 from minimum to maximum value. Field: ranking. Enter the labels in the order requested.
Response: A, B, C
(A: 35.3 nM, B: 100 nM, C: 864 nM)

###

study-system: human recombinant ATX (Homo sapiens (Human))
assay-info: ATX inhibition, hydrolysis of FRET substrate FS-3
Assay type: biochemical
assay-setup: 1 μM FS-3, 4 nM human recombinant ATX, 1 hour time point; read-out: IC50 (nM ± SD) vs FS-3
# reported IC50; entries follow

compound	IC50
O=S(=O)(c1cc(C(=S)Nc2cc(Cl)c(F)c(Cl)c2)c(Cl)cc1Cl)N1CCOCC1 [Compound 15]	83.1 nM

Prompt: I would be grateful if you could share the reported IC50 for O=S(=O)(Nc1cccc(F)c1)c1cc(S(=O)(=O)N2CCOCC2)c(Cl)cc1Cl [Compound 22] .
Response: > 1000 nM

Prompt: Which IC50 is listed for O=C(Nc1cc(F)c(C(=O)O)c(F)c1)c1cc(S(=O)(=O)N2CCOCC2)c(Cl)cc1Cl [Compound 4] ?
Response: > 1000 nM

Prompt: Any idea what its IC50 is? The compound is O=S(=O)(c1cc(N(S(=O)(=O)c2cccc(F)c2)S(=O)(=O)c2cccc(F)c2)c(Cl)cc1Cl)N1CCOCC1 [Compound 20]
Response: > 1000 nM

###

study-system: human recombinant ATX (Homo sapiens (Human), UniProt Q13822)
assay-info: ATX inhibition, hydrolysis of FRET substrate FS-3
Type: biochemical

smiles-text	study-system	ATX inhibitory activity (in words)
O=S(=O)(c1cc(-c2nc3cccc(F)c3o2)c(Cl)cc1Cl)N1CCOCC1	human recombinant ATX (Homo sapiens (Human), UniProt Q13822)	inactive
O=C(Nc1cc(F)c(F)c(F)c1)c1cc(NN2CCOCC2)c(Cl)cc1Cl	human recombinant ATX (Homo sapiens (Human), UniProt Q13822)	inactive
